- Test system: Hepatitis C virus
- assay-info: Antiviral activity against Hepatitis C virus infected in human Huh7.5 cells after 96 hrs by fluorescence microscopic analysis
- Format: functional, organism-based, Hepacivirus hominis
- condition-label: huh-7
EC50 class ranges: A = under 40 µM, B = from 40 µM up to 70 µM, C = 70 µM and over

Examples with answers:
- line-notation: "CO[C@@H]1[C@H](OC)[C@@H](OC)C[C@@H]2c3cc4c(cc3C(=O)N(C)[C@@H]12)OCO4"
  measurement-target: "Hepatitis C virus"
  group-label: "B"
- line-notation: "CC(=O)O[C@H]1C=C2c3cc4c(cc3C(=O)N[C@H]2[C@@H]2OC(C)(C)O[C@@H]21)OCO4"
  measurement-target: "Hepatitis C virus"
  group-label: "B"
- line-notation: "CO[C@@H]1[C@H](OC)[C@@H](OC)C=C2c3cc4c(cc3C(=O)N(C)[C@H]21)OCO4"
  measurement-target: "Hepatitis C virus"
  group-label: "A"
- line-notation: "CCO[C@@H]1[C@H](OCC)[C@@H](OCC)C[C@@H]2c3cc4c(cc3C(=O)N(CC)[C@@H]12)OCO4"
  measurement-target: "Hepatitis C virus"
  group-label: "B"

Kindly review the next molecule as well.
Assign a bin to "C=CCO[C@@H]1[C@H](OCC=C)[C@@H](OCC=C)C=C2c3cc4c(cc3C(=O)N(CC=C)[C@H]21)OCO4"
C

###

- Test system: Hepatitis C virus
- assay-info: Selectivity index, ratio of CC50 for human Huh7.5 cells to EC50 for Hepatitis C virus
- Format: toxicity, cell-based, Huh-7
- condition-label: read-out: Ratio CC50/EC50
readout: selectivity ratio
In your answer, state the number alone without any accompanying words.

- line-notation: "CCO[C@H]1C=C2c3cc4c(cc3C(=O)N(CC)[C@H]2[C@@H]2OC(C)(C)O[C@@H]21)OCO4"
  selectivity ratio: 12
- line-notation: "CO[C@H]1C=C2c3cc4c(cc3C(=O)N(C)[C@H]2[C@@H]2OC(C)(C)O[C@@H]21)OCO4"
  selectivity ratio: 3.01
- line-notation: "CCO[C@H]1C[C@@H]2c3cc4c(cc3C(=O)N(CC)[C@H]2[C@@H]2OC(C)(C)O[C@@H]21)OCO4"
  selectivity ratio: 3.06
- line-notation: "CC1(C)O[C@@H]2[C@H](O1)[C@@H](O)C=C1c3cc4c(cc3C(=O)N[C@H]12)OCO4"
  selectivity ratio: 9.09
- line-notation: "CC1(C)O[C@@H]2[C@H](O1)[C@@H](OCc1ccccc1)C=C1c3cc4c(cc3C(=O)N(Cc3ccccc3)[C@H]12)OCO4"
  selectivity ratio: 3.08

Sample "O=C1N[C@H]2[C@H](O)[C@H](O)[C@@H](O)C[C@@H]2c2cc3c(cc21)OCO3" ; selectivity ratio observed: 33.8

In plain terms, "CC(=O)O[C@H]1C[C@@H]2c3cc4c(cc3C(=O)N[C@H]2[C@@H]2OC(C)(C)O[C@@H]21)OCO4" has a documented selectivity ratio of 3.03

Item: "CO[C@@H]1[C@H](OC)[C@@H](OC)C=C2c3cc4c(cc3C(=O)N(C)[C@H]21)OCO4" | selectivity ratio: 8.2

selectivity ratio reading for "C=CCO[C@@H]1[C@H](OCC=C)[C@@H](OCC=C)C[C@@H]2c3cc4c(cc3C(=O)N(CC=C)[C@@H]12)OCO4" : 3.17

###

- System: Hepatitis C virus
- assay-info: Antiviral activity against Hepatitis C virus infected in human Huh7.5 cells after 96 hrs by fluorescence microscopic analysis
- Type: functional, organism-based, Hepacivirus hominis
- condition-label: huh-7
readout: EC50 (µM)
Answer with a number only, understood to be in µM.

Take a look at these entries with their results.
- line-notation: "CO[C@H]1C=C2c3cc4c(cc3C(=O)N(C)[C@H]2[C@@H]2OC(C)(C)O[C@@H]21)OCO4"
  EC50 (µM): 93
- line-notation: "CC1(C)O[C@@H]2[C@H](O1)[C@@H](O)C=C1c3cc4c(cc3C(=O)N[C@H]12)OCO4"
  EC50 (µM): 11

Reported EC50 ( "O[C@@H]1[C@H](O)[C@@H](O)C=C2c3cc4c(cc3CN[C@H]21)OCO4" ) = 33

Entry under test: "O=C1N[C@H]2[C@H](O)[C@H](O)[C@@H](O)C[C@@H]2c2cc3c(cc21)OCO3" . Its EC50 was 0.68

###

- Test system: Hepatitis C virus
- assay-info: Selectivity index, ratio of CC50 for human Huh7.5 cells to EC50 for Hepatitis C virus
- Type: toxicity, cell-based, Huh-7
- condition-label: read-out: Ratio CC50/EC50
readout: selectivity ratio

// known answers, use as guide
- line-notation: "C=CCO[C@@H]1[C@H](OCC=C)[C@@H](OCC=C)C=C2c3cc4c(cc3C(=O)N(CC=C)[C@H]21)OCO4"
  selectivity ratio: 1.62
- line-notation: "CC1(C)O[C@H]2[C@@H]3NC(=O)c4cc5c(cc4[C@H]3C[C@H](O)[C@H]2O1)OCO5"
  selectivity ratio: "< 25.5"
- line-notation: "C=CCO[C@H]1C=C2c3cc4c(cc3C(=O)N(CC=C)[C@H]2[C@@H]2OC(C)(C)O[C@@H]21)OCO4"
  selectivity ratio: 6.25

Query "O[C@@H]1[C@H](O)[C@@H](O)C=C2c3cc4c(cc3CN[C@H]21)OCO4" yields selectivity ratio of > 10.9

So for "CO[C@H]1C[C@@H]2c3cc4c(cc3C(=O)N(C)[C@H]2[C@@H]2OC(C)(C)O[C@@H]21)OCO4" , the logged selectivity ratio turned out to be 2.17

selectivity ratio reported for this molecule "O=C1N[C@@H]2C(=C[C@H](O)[C@@H](O)[C@H]2O)c2cc3c(cc21)OCO3" : 12.7

"CO[C@@H]1[C@H](OC)[C@@H](OC)C[C@@H]2c3cc4c(cc3C(=O)N(C)[C@@H]12)OCO4" yielded selectivity ratio of > 5.56

For reference, reported selectivity ratio for "CC1(C)O[C@@H]2[C@H](O1)[C@@H](O[Si](C)(C)C(C)(C)C)C=C1c3cc4c(cc3C(=O)N[C@H]12)OCO4" stands at 2.13

###

- assay-info: Cytotoxicity against human Huh7.5 cells treated after 96 hrs by MTT assay
- Type: cell-based, Huh-7
readout: CC50 at 96 h

Worked examples, 3 compounds total:
- line-notation: "O[C@@H]1[C@H](O)[C@@H](O)C=C2c3cc4c(cc3CN[C@H]21)OCO4"
  CC50 at 96 h: "> 360 µM"
- line-notation: "CCO[C@@H]1[C@H](OCC)[C@@H](OCC)C[C@@H]2c3cc4c(cc3C(=O)N(CC)[C@@H]12)OCO4"
  CC50 at 96 h: "> 300 µM"
- line-notation: "CC(=O)O[C@H]1C=C2c3cc4c(cc3C(=O)N[C@H]2[C@@H]2OC(C)(C)O[C@@H]21)OCO4"
  CC50 at 96 h: "> 300 µM"

Attention now turns to another entry.
// "CO[C@@H]1[C@H](OC)[C@@H](OC)C[C@@H]2c3cc4c(cc3C(=O)N(C)[C@@H]12)OCO4" : CC50 at 96 h value = > 300 µM

###

- Tested on: Hepatitis C virus
- assay-info: Antiviral activity against Hepatitis C virus infected in human Huh7.5 cells after 96 hrs by fluorescence microscopic analysis
- Type: functional, organism-based, Hepacivirus hominis
- condition-label: huh-7
readout: EC50 (µM)
Please state the figure in µM; there is no need to write the unit.

Worked cases, answers included:
- line-notation: "C=CCO[C@H]1C=C2c3cc4c(cc3C(=O)N(CC=C)[C@H]2[C@@H]2OC(C)(C)O[C@@H]21)OCO4"
  EC50 / µM: 40
- line-notation: "CO[C@H]1C[C@@H]2c3cc4c(cc3C(=O)N(C)[C@H]2[C@@H]2OC(C)(C)O[C@@H]21)OCO4"
  EC50 / µM: 92
- line-notation: "CC1(C)O[C@@H]2[C@H](O1)[C@@H](OCc1ccccc1)C=C1c3cc4c(cc3C(=O)N(Cc3ccccc3)[C@H]12)OCO4"
  EC50 / µM: 65
- line-notation: "CC1(C)O[C@@H]2[C@H](O1)[C@@H](O[Si](C)(C)C(C)(C)C)C=C1c3cc4c(cc3C(=O)N[C@H]12)OCO4"
  EC50 / µM: 75
- line-notation: "C=CCO[C@@H]1[C@H](OCC=C)[C@@H](OCC=C)C[C@@H]2c3cc4c(cc3C(=O)N(CC=C)[C@@H]12)OCO4"
  EC50 / µM: 12
- line-notation: "CC(=O)O[C@H]1C[C@@H]2c3cc4c(cc3C(=O)N[C@H]2[C@@H]2OC(C)(C)O[C@@H]21)OCO4"
  EC50 / µM: 89
- line-notation: "CCO[C@H]1C[C@@H]2c3cc4c(cc3C(=O)N(CC)[C@H]2[C@@H]2OC(C)(C)O[C@@H]21)OCO4"
  EC50 / µM: 85
- line-notation: "CCO[C@H]1C=C2c3cc4c(cc3C(=O)N(CC)[C@H]2[C@@H]2OC(C)(C)O[C@@H]21)OCO4"
  EC50 / µM: 15

Next compound, please.
Sample "O=C1N[C@@H]2C(=C[C@H](O)[C@@H](O)[C@H]2O)c2cc3c(cc21)OCO3" ; EC50 observed: 0.55

Attribution: ChEMBL document CHEMBL2375214
